The reported measurements were obtained from ChEMBL document CHEMBL4680100.

Recorded CLH by entry
- ASSAY: Intrinsic clearance in mouse liver microsome in presence of NADPH-regenerating system incubated over 60 mins by LC-MS analysis
- CONDITION SET: microsomes, 1 h

Example results:
> print(dat)
                                   compound  measurement.type  endpoint.result
1  CN1C(=O)N(c2ccc(F)c(C(F)(F)F)c2)C(=O)C1(C)C               CLH     65 µL/min/mg
2  CCN1C(=O)N(c2ccc(F)c(C(F)(F)F)c2)C(=O)C1(C)C               CLH     32 µL/min/mg
3  CC1(CO)NC(=O)N(c2ccc(F)c(C(F)(F)F)c2)C1=O (stereo unspecified)               CLH    < 7 µL/min/mg

Which CLH is listed for `CC1(C)C(=O)N(c2ccc(F)c(C(F)(F)F)c2)C(=O)N1CC(N)=O` ?
< 7 µL/min/mg

Which CLH is listed for `CC1(C)NC(=O)N(c2ccc(F)c(C#N)c2)C1=O` ?
< 7 µL/min/mg

Which CLH is listed for `CC1(C)NC(=O)N(c2ccnc3ccccc23)C1=O` ?
< 7 µL/min/mg

====

- TGT: UniProt:P02768
- Sequence (P02768 whole entry): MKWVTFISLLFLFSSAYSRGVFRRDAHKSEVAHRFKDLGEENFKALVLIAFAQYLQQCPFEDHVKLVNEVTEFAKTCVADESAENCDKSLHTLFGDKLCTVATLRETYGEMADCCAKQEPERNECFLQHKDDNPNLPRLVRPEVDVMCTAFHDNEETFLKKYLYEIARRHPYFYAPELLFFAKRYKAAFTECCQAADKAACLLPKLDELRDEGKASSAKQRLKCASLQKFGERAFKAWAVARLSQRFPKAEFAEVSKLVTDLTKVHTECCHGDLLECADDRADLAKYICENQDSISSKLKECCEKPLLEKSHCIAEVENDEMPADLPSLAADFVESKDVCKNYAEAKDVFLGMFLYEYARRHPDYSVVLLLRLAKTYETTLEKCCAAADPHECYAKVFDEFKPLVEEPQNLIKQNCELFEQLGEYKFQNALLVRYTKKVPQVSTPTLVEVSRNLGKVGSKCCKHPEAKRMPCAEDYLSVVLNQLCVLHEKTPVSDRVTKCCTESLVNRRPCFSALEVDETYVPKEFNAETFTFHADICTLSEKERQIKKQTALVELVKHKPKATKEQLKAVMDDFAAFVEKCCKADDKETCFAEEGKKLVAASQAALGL
- ASSAY: Protein binding in immobilized human serum albumin by HPLC analysis
- Type: ADME
- CONDITION SET: isolated protein
Note to self: values exactly at 50% are 1. So PPB at or above 50% is 1, below is -1.

Consider the following illustrative entries.
> print(dat)
                               smiles.input  qualitative.label
1  CC1(C)C(=O)N(c2ccc(F)c(C(F)(F)F)c2)C(=O)N1CCc1ccccc1                  1
2  CN1C(=O)N(c2ccc(F)c(C(F)(F)F)c2)C(=O)C1(C)C                 -1
3    CC1(C)CN(c2ccc(F)c(C(F)(F)F)c2)C(=O)N1                  1
4       CC1(C)NC(=O)N(c2ccc(F)c(C#N)c2)C1=O                 -1
5  CC1(C)C(=O)N(c2ccc(F)c(C(F)(F)F)c2)C(=O)N1S(C)(=O)=O                  1
6         CC1(C)NC(=O)N(c2ccnc3ccccc23)C1=O                 -1

For this compound, is measured PPB 50% or higher? `CC1(C)NC(=O)N(c2ccncc2)C1=O`
-1

For this compound, is measured PPB 50% or higher? `CC1(C)NC(=O)N(Cc2ccc(F)c(C(F)(F)F)c2)C1=O`
1

For this compound, is measured PPB 50% or higher? `CC1(C)NC(=O)N(c2ccnc(C(F)(F)F)c2)C1=O`
-1

====

- ASSAY: Tmax in male Swiss mouse at 100 mg/kg, po administered via gavage measured upto 48 hrs postdose by LC-MS analysis
- Type: ADME, organism-based
- CONDITION SET: in vivo
MEASUREMENT TYPE: Tmax (h)
Write down the numeric answer in h and omit the unit.

Example results:
> print(dat)
                               smiles.input  endpoint.result
1  O=C1NC2(CCCC2)C(=O)N1c1ccc(F)c(C(F)(F)F)c1                1
2  CN(C)C(=O)c1cc(N2C(=O)NC(C)(C)C2=O)ccc1F                1
3  CN1C(=O)N(c2ccc(F)c(C(F)(F)F)c2)C(=O)C1(C)C                1
4  CCN1C(=O)N(c2ccc(F)c(C(F)(F)F)c2)C(=O)C1(C)C                1
5     CC1(C)NC(=O)N(c2ccc(F)c(C(F)F)c2)C1=O                3

# input for lookup
Which Tmax is listed for `CC1(C)NC(=O)N(c2ccnc(C(F)(F)F)c2)C1=O` ?
7
